System: Aerobic Bacterial Biofilms
Procedure Details: Log reduction of sessile microorganisms in aerobic biofilm (Example 2, Procedure A)
Assay type: cell-based, predominantly Pseudomonas species
Test Settings: Pseudomonas; 50 ppm, 4 hr contact; 7.4 represents complete kill; read-out: log reduction after 4 hr
Listing of entries alongside the reported log reduction at 50 ppm.
Metric: log reduction at 50 ppm

molecule="O=Cc1cccc(O)c1O [DHB, 2,3-dihydroxybenzaldehyde]" metric="log reduction at 50 ppm" observed=0
molecule="O=Cc1ccccc1C(=O)O [CB, 2-carboxybenzaldehyde]" metric="log reduction at 50 ppm" observed=0
molecule="COc1cccc(C=O)c1O [OVA, ortho-vanillin]" metric="log reduction at 50 ppm" observed=0
molecule="O=Cc1ccccc1C=O [OPA, ortho-phthalaldehyde]" metric="log reduction at 50 ppm" observed=7.4
molecule="O=Cc1ccccc1O [SA, salicylaldehyde]" metric="log reduction at 50 ppm" observed=0

---

Tested on: Aerobic Bacterial Biofilms
Procedure Details: Log reduction of sessile microorganisms in aerobic biofilm (Example 2, Procedure A)
Type: cell-based, predominantly Pseudomonas species
Test Settings: Pseudomonas; 50 ppm, 1 hr contact; 7.4 represents complete kill; read-out: log reduction after 1 hr
Items are presented alongside their recorded log reduction at 50 ppm.
Metric: log reduction at 50 ppm

compound=O=Cc1ccccc1C(=O)O metric="log reduction at 50 ppm" observed=0
compound=O=Cc1ccccc1O metric="log reduction at 50 ppm" observed=0
compound=O=Cc1ccccc1C=O metric="log reduction at 50 ppm" observed=2.9
compound=COc1cccc(C=O)c1O metric="log reduction at 50 ppm" observed=0
compound="O=Cc1cccc(O)c1O [DHB, 2,3-dihydroxybenzaldehyde]" metric="log reduction at 50 ppm" observed=0

---

Procedure Details: Solubility in water
Assay type: physicochemical
Test Settings: 25° C., read-out: limit of solubility in water
Metric: solubility

compound="O=Cc1ccccc1C=O [OPA, ortho-phthalaldehyde]" observed="~50 mg/mL"
